Molecular target: Full-length human MNK2 (Homo sapiens, UniProt Q9HBH9, T379D)
Construct: GST (N); purchased Carna Biosciences 02-146; host or cells: baculovirus expression system
Sequence (Q9HBH9 whole entry T379D): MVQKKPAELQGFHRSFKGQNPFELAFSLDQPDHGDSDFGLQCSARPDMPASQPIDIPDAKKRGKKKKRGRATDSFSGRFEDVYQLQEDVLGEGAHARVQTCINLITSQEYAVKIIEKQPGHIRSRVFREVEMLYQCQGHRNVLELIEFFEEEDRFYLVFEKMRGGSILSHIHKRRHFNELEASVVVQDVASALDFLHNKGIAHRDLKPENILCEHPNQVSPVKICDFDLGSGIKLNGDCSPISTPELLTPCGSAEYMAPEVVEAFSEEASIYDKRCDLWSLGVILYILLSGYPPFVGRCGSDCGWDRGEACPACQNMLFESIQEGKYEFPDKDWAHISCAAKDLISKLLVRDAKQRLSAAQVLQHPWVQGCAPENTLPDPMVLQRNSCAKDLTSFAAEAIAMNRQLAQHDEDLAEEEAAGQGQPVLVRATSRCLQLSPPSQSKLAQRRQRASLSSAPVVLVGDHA
Experiment: MNK2 biochemical IC50 assay (Caliper Mobility Shift Assay)
Conditions: read-out: P(IC50) MNK2 (converted)
Excerpt: The phosphorylated peptide product and unphosphorylated peptide substrate were detected using a Caliper Mobility Shift Assay using the Caliper LabChip EZ Reader II. The Caliper Mobility Shift Assay technology is based on the utilisation of a microfluidic chip to measure the conversion of a fluorescent non-phosphorylated peptide substrate to phosphorylated product by electrophoresis separation of substrate and product and detection via Laser-induced fluorescence. […]
observedProperty: IC50 (µM)

- compound: "CN(C)Cc1cn(-c2ncnc3sc(C(=O)NC4CCOCC4)nc23)c2ccccc12"
  unitsText: "µM"
  IC50: 0.0794
- compound: "Fc1ccc2c(c1)CCN2c1ncnc2sc(N3CCOCC3)nc12"
  unitsText: "µM"
  IC50: 0.0794
- compound: "O=C(NCC1CCNCC1)c1nc2c(N3CC(CCO)c4cc(F)ccc43)ncnc2s1 (stereo not drawn)"
  unitsText: "µM"
  IC50: 0.00316
- compound: "O=C(NCC1CCNCC1)c1nc2c(Nc3ccc(F)cc3O[C@H]3CCOC3)ncnc2s1"
  unitsText: "µM"
  IC50: 0.1
- compound: "O=C(NC1CCOCC1)c1nc2c(N3CC(CO)c4ccccc43)ncnc2s1 (stereo not drawn)"
  unitsText: "µM"
  IC50: 0.00794
- compound: "CN1CCN(CCC2CN(c3ncnc4sc(C(=O)NC5CCOCC5)nc34)c3ccc(F)cc32)CC1 (stereo not drawn)"
  unitsText: "µM"
  IC50: 0.0631
- compound: "CC1Cc2ccccc2N1c1ncnc2sc(C(=O)NC3CCOCC3)nc12 (stereo not drawn)"
  unitsText: "µM"
  IC50: 0.0316
- compound: "C[C@H]1Cc2ccccc2N1c1ncnc2sc(C(=O)NC3CCNCC3)nc12"
  unitsText: "µM"
  IC50: 0.0158

P = CC(C)Oc1cc(F)ccc1Nc1ncnc2sc(C(=O)NCCC3CCN(C)CC3)nc12
Q = O=C(NC1CCOCC1)c1nc2c(N3CCc4ccccc43)ncnc2s1
Q: // max by IC50 over [ P , Q ] Write down the label of the entry you select.
A: P

###

Target: Full-length human MNK1 (Homo sapiens, UniProt Q9BUB5, T385D)
Construct: GST (N); purchased Carna Biosciences 02-145; host or cells: baculovirus expression system
Sequence (Q9BUB5 1-424 isoform Q9BUB5-2 T344D): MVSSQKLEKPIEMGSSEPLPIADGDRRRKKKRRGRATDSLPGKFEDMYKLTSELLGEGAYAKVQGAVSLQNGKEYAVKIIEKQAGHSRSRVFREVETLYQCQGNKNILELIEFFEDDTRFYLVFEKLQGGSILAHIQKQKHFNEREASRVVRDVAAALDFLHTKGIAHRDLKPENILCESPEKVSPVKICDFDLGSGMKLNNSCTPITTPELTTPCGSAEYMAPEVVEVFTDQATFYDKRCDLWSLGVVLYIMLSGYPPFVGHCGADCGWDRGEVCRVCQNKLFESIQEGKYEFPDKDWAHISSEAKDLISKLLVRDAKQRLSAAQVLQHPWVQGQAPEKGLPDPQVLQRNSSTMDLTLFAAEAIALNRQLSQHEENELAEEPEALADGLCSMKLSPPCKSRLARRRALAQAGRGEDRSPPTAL
Assay: MNK1 biochemical IC50 assay (Caliper Mobility Shift Assay)
Settings: read-out: P(IC50) MNK1 (converted)
observedProperty: IC50 (nM)

# annotated cases, reported IC50 shown
- compound: "C[C@H]1Cc2ccccc2N1c1ncnc2sc(C(=O)NC3CCOCC3)nc12"
  targetEntity: "Full-length human MNK1 (Homo sapiens, UniProt Q9BUB5, T385D)"
  unitsText: "nM"
  value: 79.4
- compound: "CNCCCNC(=O)c1nc2c(N3c4ccccc4C[C@H]3C)ncnc2s1"
  targetEntity: "Full-length human MNK1 (Homo sapiens, UniProt Q9BUB5, T385D)"
  unitsText: "nM"
  value: 20

P = O=C(Nc1nc2c(N3CCc4cc(F)ccc43)ncnc2s1)C1CCOC1 (centres unmarked)
Q = CN1CCC(CNC(=O)c2nc3c(N4CCc5cccc(F)c54)ncnc3s2)CC1
Q: Could you tell me which of these two has the smaller IC50 figure? First: P Second: Q Write down the label of the entry you select.
A: P

###

Biological target: Full-length human MNK2 (Homo sapiens, UniProt Q9HBH9, T379D)
Construct: GST (N); purchased Carna Biosciences 02-146; host or cells: baculovirus expression system
Experiment: MNK2 biochemical IC50 assay (Caliper Mobility Shift Assay)
Conditions: read-out: P(IC50) MNK2 (converted)
observedProperty: IC50 (nM)

- compound: "CN(C)CCCNC(=O)c1nc2c(Nc3ccc(F)cc3O[C@H]3CCCOC3)ncnc2s1 [Example 17]"
  IC50 [nM]: 100

A = CN1CCC(NC(=O)c2nc3c(N4CCc5cc([N+](=O)[O-])ccc54)ncnc3s2)CC1 [Example 45]
B = O=C(NC1CCOCC1)c1nc2c(N3CC(CCN4CCOCC4)c4cc(F)ccc43)ncnc2s1 (stereo not drawn) [Example 151]
Q: Could you tell me which of these two has the smaller IC50 figure? First: A Second: B Write down the label of the entry you select.
A: A

###

Biological target: Full-length human MNK1 (Homo sapiens, UniProt Q9BUB5, T385D)
Construct: GST (N); purchased Carna Biosciences 02-145; host or cells: baculovirus expression system
Assay: MNK1 biochemical IC50 assay (Caliper Mobility Shift Assay)
Settings: read-out: P(IC50) MNK1 (converted)
observedProperty: IC50 (nM)

# annotated cases, reported IC50 shown
- compound: "O=C(NC1CCOCC1)c1nc2c(N3CC(CO)c4ccccc43)ncnc2s1 (stereo not drawn)"
  IC50, nM: 12.6
- compound: "CNCCNC(=O)c1nc2c(Nc3ccc(F)cc3OC(C)C)ncnc2s1"
  IC50, nM: 200
- compound: "N#Cc1ccc2c(c1)CCN2c1ncnc2sc(C(=O)NC3CCOCC3)nc12"
  IC50, nM: 31.6
- compound: "CN1CCN(CCC2CN(c3ncnc4sc(C(=O)NC5CCOCC5)nc34)c3ccc(F)cc32)CC1 (stereo not drawn)"
  IC50, nM: 63.1
- compound: "CC1CN(c2ncnc3sc(C(=O)NCC4CCNCC4)nc23)c2ccccc21 (stereo not drawn)"
  IC50, nM: 6.31

a = O=C(NCC1CCNCC1)c1nc2c(N3CCc4cc(Cl)ccc43)ncnc2s1
b = CN(C)CCC1CN(c2ncnc3sc(C(=O)NC4CCOCC4)nc23)c2ccc(F)cc21 (stereo not drawn)
Q: // max by IC50 over [ a , b ] Write down the label of the entry you select.
A: b

###

System: phosphorylation of eIF4E at ser209 in MV4.11 cell line
Assay: MNK cellular activity phospho-eIF4E detection assay (Alphascreen Surefire)
Type: cell-based
Settings: Homo sapiens; MV4.11 cell line, phospho-eIF4E (ser209) Alphascreen Surefire; read-out: P(IC50) elF4E (converted)
observedProperty: IC50 (µM)

# annotated cases, reported IC50 shown
- compound: "Fc1ccc2c(c1)CCN2c1ncnc2sc(N3CCOCC3)nc12"
  targetEntity: "phosphorylation of eIF4E at ser209 in MV4.11 cell line"
  value: 0.2
- compound: "O=C(NCC1CCNCC1)c1nc2c(N3CC(CCO)c4cc(F)ccc43)ncnc2s1 (stereo not shown)"
  targetEntity: "phosphorylation of eIF4E at ser209 in MV4.11 cell line"
  value: 0.0316
- compound: "CNCCC1CN(c2ncnc3sc(C(=O)NC4CCOCC4)nc23)c2ccc(F)cc21 (stereo not shown)"
  targetEntity: "phosphorylation of eIF4E at ser209 in MV4.11 cell line"
  value: 0.0158
- compound: "CN(C)C(=O)c1nc2c(N3CCc4cc(F)ccc43)ncnc2s1"
  targetEntity: "phosphorylation of eIF4E at ser209 in MV4.11 cell line"
  value: 0.0631
- compound: "O=C(NC1CCOCC1)c1nc2c(N3CC(CCO)c4ccccc43)ncnc2s1 (stereo not shown)"
  targetEntity: "phosphorylation of eIF4E at ser209 in MV4.11 cell line"
  value: 0.01

a = CN1CCN(C(=O)c2nc3c(N4CCc5cc(F)ccc54)ncnc3s2)CC1
b = O=C(NC1CCOCC1)c1nc2c(N3CC(CCN4CCOCC4)c4ccccc43)ncnc2s1 (stereo not shown)
c = O=C(NC1CCOCC1)c1nc2c(N3CCc4cc(F)ccc43)ncnc2s1
d = O=C(NCC1CCNCC1)c1nc2c(N3CCc4cc(C(F)(F)F)ccc43)ncnc2s1
e = CC(C)Oc1cc(F)ccc1Nc1ncnc2sc(C(=O)NC3CCN(C)CC3)nc12
Q: Parameters: sort_field (IC50), sort_dir (desc). Record the ranking as a list of labels in the requested order.
A: d, a, b, e, c
(d: 0.501 µM, a: 0.251 µM, b: 0.1 µM, e: 0.0398 µM, c: 0.01 µM)

###

Target: Full-length human MNK2 (Homo sapiens, UniProt Q9HBH9, T379D)
Construct: GST (N); purchased Carna Biosciences 02-146; host or cells: baculovirus expression system
Assay: MNK2 biochemical IC50 assay (Caliper Mobility Shift Assay)
Conditions: read-out: P(IC50) MNK2 (converted)
observedProperty: IC50 (nM)

- compound: "O=C(NC1CCOCC1)c1nc2c(N3CC4(CCOCC4)c4ccccc43)ncnc2s1 [Example 108]"
  value: 39.8

I = CCOc1cc(F)ccc1Nc1ncnc2sc(C(=O)NCC3CCNCC3)nc12 [Example 53]
II = CC(C)Oc1ncccc1Nc1ncnc2sc(C(=O)NCC3CCNCC3)nc12 [Example 55]
III = O=C(NC1CCOCC1)c1nc2c(N3CCc4cc(O)ccc43)ncnc2s1 [Example 114]
IV = CNCCC1CN(c2ncnc3sc(C(=O)NC4CCOCC4)nc23)c2ccccc21 (stereo not shown) [Example 115]
V = CN(C)CCCOc1nc2c(N3CCc4cc(F)ccc43)ncnc2s1 [Example 89]
Q: Let's sort these by IC50, smallest first. Go ahead? Record the ranking as a list of labels in the requested order.
A: III, IV, V, I, II
(III: 2.51 nM, IV: 15.8 nM, V: 63.1 nM, I: 126 nM, II: 251 nM)

A = O=C(NCC1CCNCC1)c1nc2c(Nc3ccc(F)cc3OC(CF)CF)ncnc2s1 [Example 52]
B = CC1(CCO)CN(c2ncnc3sc(C(=O)NCC4CCNCC4)nc23)c2ccccc21 (stereo not shown) [Example 144]
Q: Could you tell me which of these two has the smaller IC50 figure? First: A Second: B Write down the label of the entry you select.
A: B
(B: 15.8 nM, A: 63.1 nM)

a = CNC(=O)c1nc2c(N3CC(C)c4ccccc43)ncnc2s1 (stereo not shown) [Example 156]
b = Fc1ccc2c(c1)CCN2c1ncnc2scnc12 [Example 171]
Q: Could you tell me which of these two has the smaller IC50 figure? First: a Second: b Write down the label of the entry you select.
A: a
(a: 7.94 nM, b: 63.1 nM)

P = CC(C)Oc1cc(F)ccc1Nc1ncnc2sc(C(=O)NC3CNC3)nc12 [Example 28]
Q = CN(C)CCCNc1nc2c(N3CCc4cc(F)ccc43)ncnc2s1 [Example 85]
R = O=C(NCC1CCNCC1)c1nc2c(N3CC(CO)c4ccccc43)ncnc2s1 (stereo not shown) [Example 135]
Q: Let's sort these by IC50, smallest first. Go ahead? Record the ranking as a list of labels in the requested order.
A: R, Q, P
(R: 7.94 nM, Q: 20 nM, P: 79.4 nM)

I = CC(C)Oc1cc(F)ccc1Nc1ncnc2sc(C(=O)NC3CCOCC3)nc12 [Example 33]
II = O=C(NC1CCOCC1)c1nc2c(N3CCc4cc(Cl)cc(F)c43)ncnc2s1 [Example 91]
Q: // max by IC50 over [ I , II ] Write down the label of the entry you select.
A: I
(I: 79.4 nM, II: 50.1 nM)

1 = O=C(NC1CCNCC1)c1nc2c(N3CCc4cc(F)ccc43)ncnc2s1 [Example 78]
2 = CC(C)Oc1cc(F)ccc1Nc1ncnc2sc(C(=O)NCCCO)nc12 [Example 8]
3 = O=C(NC1COC1)c1nc2c(N3CCc4ccccc43)ncnc2s1 [Example 100]
4 = CN(C)CCCNC(=O)c1nc2c(Nc3ccc(F)cc3O[C@H]3CCCC[C@@H]3O)ncnc2s1 [Example 19]
5 = O=C(NCC1CCNCC1)c1nc2c(Nc3ccc(F)cc3OC(F)(F)F)ncnc2s1 [Example 59]
Q: Let's sort these by IC50, smallest first. Go ahead? Record the ranking as a list of labels in the requested order.
A: 1, 3, 2, 4, 5
(1: 2 nM, 3: 20 nM, 2: 50.1 nM, 4: 794 nM, 5: 1580 nM)

1 = C[C@@H]1Cc2ccccc2N1c1ncnc2sc(C(=O)NCC3CCNCC3)nc12 [Example 127]
2 = O=C(NCCCn1cccn1)c1nc2c(N3CCc4cc(F)ccc43)ncnc2s1 [Example 75]
3 = CC1CN(c2ncnc3sc(C(=O)NC4CCN(C)CC4)nc23)c2ccccc21 (stereo not shown) [Example 126]
4 = CC(C)Oc1ccccc1Nc1ncnc2sc(C(=O)NCCCN(C)C)nc12 [Example 23]
5 = O=C(NCC1CCNCC1)c1nc2c(N3c4ccccc4C[C@@H]3CO)ncnc2s1 [Example 138]
Q: Parameters: sort_field (IC50), sort_dir (desc). Record the ranking as a list of labels in the requested order.
A: 5, 4, 1, 3, 2

I = O=C(NC1CCNCC1)c1nc2c(N3CCc4ccccc43)ncnc2s1 [Example 98]
II = CN(C)CCCNC(=O)c1nc2c(N3CCc4cccc(F)c43)ncnc2s1 [Example 92]
Q: // max by IC50 over [ I , II ] Write down the label of the entry you select.
A: II
(II: 126 nM, I: 3.98 nM)
